# STUDY TARGET: Sodium- and chloride-dependent glycine transporter 1 (Homo sapiens, UniProt P48067)
# Sequence (P48067 whole entry): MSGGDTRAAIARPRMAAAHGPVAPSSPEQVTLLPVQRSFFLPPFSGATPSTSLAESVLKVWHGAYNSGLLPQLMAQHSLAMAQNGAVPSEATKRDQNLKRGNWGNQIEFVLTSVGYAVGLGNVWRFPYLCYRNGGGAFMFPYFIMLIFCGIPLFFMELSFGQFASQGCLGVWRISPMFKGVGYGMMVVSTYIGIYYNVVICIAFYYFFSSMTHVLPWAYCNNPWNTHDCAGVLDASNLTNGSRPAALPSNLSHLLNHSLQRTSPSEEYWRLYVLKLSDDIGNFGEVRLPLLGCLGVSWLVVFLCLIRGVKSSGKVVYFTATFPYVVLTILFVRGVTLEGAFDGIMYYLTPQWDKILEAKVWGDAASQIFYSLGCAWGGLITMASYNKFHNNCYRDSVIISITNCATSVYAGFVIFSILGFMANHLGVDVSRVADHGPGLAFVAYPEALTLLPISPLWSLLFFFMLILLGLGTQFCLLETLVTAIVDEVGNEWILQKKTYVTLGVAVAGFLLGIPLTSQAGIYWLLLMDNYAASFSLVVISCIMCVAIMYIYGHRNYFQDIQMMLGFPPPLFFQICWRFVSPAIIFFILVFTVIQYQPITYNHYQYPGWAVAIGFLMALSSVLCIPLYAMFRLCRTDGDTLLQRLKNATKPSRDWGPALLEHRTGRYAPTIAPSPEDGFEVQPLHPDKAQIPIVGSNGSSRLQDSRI
# TEST DETAILS: Inhibition of human GlyT1 expressed in cells assessed as [3H]glycine uptake
Reported values of EC50 for individual entries

Look over these answered cases.
COc1cc(C(F)(F)F)cc(C(F)(F)F)c1C(=O)NC1(c2ccccc2)CCCN(C(C)=O)C1 (racemic)    > 10 µM
COc1cc(C(F)(F)F)cc(SC)c1C(=O)NC1(c2cnccn2)CCCN(C)C1 (racemic)    1.67 µM
CSc1cc(C(F)(F)F)ccc1C(=O)NC1(c2ccccc2)CCCN(C)C1 (racemic)    0.067 µM

In: # query: EC50 of entry COc1cc(C(F)(F)F)cc(SC)c1C(=O)NC1(c2cccc(F)c2)CCCN(C)C1 (racemic)
Out: 0.048 µM

In: Would you kindly share the measured EC50 for COc1cc(C(F)(F)F)cc(SC)c1C(=O)N[C@@]1(c2ccccc2)CCCN(C)C1 ?
Out: 0.01 µM

Values compiled from ChEMBL document CHEMBL3259663.
